I'd appreciate it if you could supply IC50 GM-CSF, TF-1 proliferation values for the items below.
# study target: T1, human CD131 (human, UniProt P32927 17-897)
# T1 sequence: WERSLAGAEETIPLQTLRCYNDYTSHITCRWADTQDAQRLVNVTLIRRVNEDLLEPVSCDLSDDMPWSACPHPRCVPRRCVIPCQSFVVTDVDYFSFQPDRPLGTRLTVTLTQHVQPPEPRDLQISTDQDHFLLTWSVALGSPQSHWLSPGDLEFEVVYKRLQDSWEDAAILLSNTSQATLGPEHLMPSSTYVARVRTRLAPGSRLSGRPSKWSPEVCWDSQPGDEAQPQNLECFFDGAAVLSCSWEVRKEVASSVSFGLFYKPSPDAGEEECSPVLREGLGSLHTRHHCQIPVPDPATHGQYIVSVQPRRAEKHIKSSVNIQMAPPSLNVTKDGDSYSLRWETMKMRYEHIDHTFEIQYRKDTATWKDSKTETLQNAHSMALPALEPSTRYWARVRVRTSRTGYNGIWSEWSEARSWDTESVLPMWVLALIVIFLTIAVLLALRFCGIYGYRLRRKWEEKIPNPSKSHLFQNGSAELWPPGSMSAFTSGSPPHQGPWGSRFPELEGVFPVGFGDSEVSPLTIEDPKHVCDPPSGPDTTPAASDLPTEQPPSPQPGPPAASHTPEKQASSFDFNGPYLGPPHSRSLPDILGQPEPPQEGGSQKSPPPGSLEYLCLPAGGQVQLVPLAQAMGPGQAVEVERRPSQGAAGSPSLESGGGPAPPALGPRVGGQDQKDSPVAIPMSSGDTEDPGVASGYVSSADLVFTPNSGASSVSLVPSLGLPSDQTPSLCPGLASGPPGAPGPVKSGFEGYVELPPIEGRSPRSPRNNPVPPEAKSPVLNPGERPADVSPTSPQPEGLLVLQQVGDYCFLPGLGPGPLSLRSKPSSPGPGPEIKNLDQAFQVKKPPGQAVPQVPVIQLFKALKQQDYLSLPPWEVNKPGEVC
# test details: cell-based or functional assay
Report the value in nM with no unit label.

[Q] # query: IC50 GM-CSF, TF-1 proliferation of entry 9A2-VR49 (antibody, V domains shown) VH: EVQLLESGGGLVQPGGSLRLSCAASGFTFSHYHMLWVRQAPGKGLEWVSSIRSSGGFTYYADSVKGRFTISRDNSKNTLYLQMNSLRAEDTAVYYCARFYSDHFNPWGQGTMVTVSS VL: DIQMTQSPSSVSASVGDRVTITCRASQGISSWLAWYQQKPGKAPKLLIYAASSLQSGVPSRFSGSGSGTDFTLTISSLQPEDFATYYCQQANSFPITFGQGTRLEIKR
[A] 23.4

[Q] And what about the binder 9A2-VR5 (antibody, V domains shown) VH: EVQLLESGGGLVQPGGSLRLSCAASGFTFSHYHMLWVRQAPGKGLEWVSSIRSSGGFTYYADSVKGRFTISRDNSKNTLYLQMNSLRAEDTAVYYCARFYDSFFDIWGQGTMVTVSS VL: DIQMTQSPSSVSASVGDRVTITCRASQGIRPFVAWYQQKPGKAPKLLIYAASSLQSGVPSRFSGSGSGTDFTLTISSLQPEDFATYYCQQANSFPITFGQGTRLEIKR ?
[A] 87

[Q] And what about the binder 9A2-VR11 (antibody, V domains shown) VH: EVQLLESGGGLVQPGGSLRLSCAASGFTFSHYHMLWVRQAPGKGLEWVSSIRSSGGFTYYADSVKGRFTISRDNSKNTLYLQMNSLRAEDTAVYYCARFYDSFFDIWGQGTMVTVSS VL: DIQMTQSPSSVSASVGDRVTITCRASQGVRPFVSWYQQKPGKAPKLLIYAASSLQSGVPSRFSGSGSGTDFTLTISSLQPEDFATYYCQQANSFPITFGQGTRLEIKR ?
[A] 353
